Recorded cytotoxicity at 10 µM by entry
- PROTOCOL DETAILS: Toxicity liver stage against HepG2, at 10uM
- Assay type: cell-based
- Parameters: test concentration 10 uM, cell line HepG2-A16-CD81EGFP
- SETTINGS: human, HepG2-A16-CD81EGFP cells; read-out: INHIBITION
Output spec: scalar in %, unitless text.

[[record]]
compound = "CN(C)CC(=O)N1CCc2sc(C(=O)N3CCOCC3)cc21"
value_type = "cytotoxicity at 10 µM"
meas_value = -99.4


# lookup: cytotoxicity at 10 µM of Cc1cccc(C(Nc2nccc(-c3ccc(C)nc3C)n2)C2CC2)n1 (stereo unspecified) 0.74

# lookup: cytotoxicity at 10 µM of CCOC[C@H]1CC[C@H]2[C@H](CCN2Cc2c(C)noc2C)O1 3.23

# lookup: cytotoxicity at 10 µM of Cc1ccc(NC(=O)CNc2cccc3c2CCCC3)c(Br)c1 14.8

# lookup: cytotoxicity at 10 µM of Cc1nc(CNCC(O)COc2ccc3c(c2)OCO3)cs1 (stereo unspecified) 4

# lookup: cytotoxicity at 10 µM of O=c1[nH]c2ccccc2c(=O)n1Cc1nnnn1C1CC1 -16.1

# lookup: cytotoxicity at 10 µM of COc1cc(F)ccc1-c1cc(N)ccn1 -9.5

# lookup: cytotoxicity at 10 µM of CCn1cc(CN2CCC(N3CCC(O)CC3)CC2)cc1C#N 0.371

# lookup: cytotoxicity at 10 µM of CSc1ccc(CN2CCC(CCC(=O)Nc3ccccc3)CC2)cc1 6.8

# lookup: cytotoxicity at 10 µM of COCCNCc1cc2cc(C)cc(C)c2[nH]c1=O -2.13

# lookup: cytotoxicity at 10 µM of O=C(C1CCOCC1)N1C[C@@H]2CN(Cc3ccsc3)CCO[C@@H]2C1 -77.5

* * *

- PROTOCOL DETAILS: Toxicity liver stage against HepG2, at 10uM
- Assay type: cell-based
- Design: test concentration 10 uM, cell line HepG2-A16-CD81EGFP
- SETTINGS: human, HepG2-A16-CD81EGFP cells; read-out: INHIBITION
Recorded cytotoxicity at 10 µM by entry
Output spec: scalar in %, unitless text.

[[record]]
molecule = "CCN(CC)C(CNC(=O)c1ccc(S(C)(=O)=O)cc1)c1ccco1 (configuration not stated)"
meas_value = -0.00646

[[record]]
molecule = "CN1CCN(Cc2ccc(-c3ccc(-c4ccn[nH]4)cc3)nc2)CC1"
meas_value = 3.61

[[record]]
molecule = "CN(Cc1cccnc1)CC1CN(C(=O)C2CC2)Cc2nccn2C1 (configuration not stated)"
meas_value = -79.8

[[record]]
molecule = "Cn1cnc2c1CCN(CCS(=O)(=O)c1ccc(Cl)cc1)C2"
meas_value = -6.67

[[record]]
molecule = "Cc1cnn(CC(C)Nc2cnc3ccccc3n2)c1 (configuration not stated)"
meas_value = 14.5


# lookup: cytotoxicity at 10 µM of O=C(CCCc1ccccn1)N1CCC(n2cccc2)CC1 4.59

# lookup: cytotoxicity at 10 µM of c1ccc(C(c2ccccc2)N2CCN(CCn3cncn3)CC2)cc1 -7.72

* * *

- PROTOCOL DETAILS: Toxicity liver stage against HepG2, at 10uM
- Format: cell-based
- Design: test concentration 10 uM, cell line HepG2-A16-CD81EGFP
- SETTINGS: human, HepG2-A16-CD81EGFP cells; read-out: INHIBITION
Recorded cytotoxicity at 10 µM by entry
Output spec: scalar in %, unitless text.

# lookup: cytotoxicity at 10 µM of CC(c1ccc(-n2cncn2)cc1)N(C)Cc1ccccn1 (stereo not given) 8.86
